target: UGT1A9 (Homo sapiens, UniProt O60656); construct: expressed in transfected cells; microsomal fraction; test: Inhibition of R-oxazepam glucuronidation in rUGT1A9 microsomes (UGT-overexpressing HEK293); assay type: biochemical; conditions: human, pH 7.4, probe R,S-oxazepam 4 µM, oxazepam glucuronide formation; rUGT1A9 microsomes, 100 µM ketoconazole; range over the three enzymes
readout_kind: inhibition at 2 h, 100 µM

1. CC(=O)N1CCN(c2ccc(OCC3COC(Cn4ccnc4)(c4ccc(Cl)cc4Cl)O3)cc2)CC1 (stereo not shown)
49 to 85%

----------
Biological target: UGT1A9 (Homo sapiens)
Construct: expressed in transfected cells; microsomal fraction
Sequence (O60656 26-530): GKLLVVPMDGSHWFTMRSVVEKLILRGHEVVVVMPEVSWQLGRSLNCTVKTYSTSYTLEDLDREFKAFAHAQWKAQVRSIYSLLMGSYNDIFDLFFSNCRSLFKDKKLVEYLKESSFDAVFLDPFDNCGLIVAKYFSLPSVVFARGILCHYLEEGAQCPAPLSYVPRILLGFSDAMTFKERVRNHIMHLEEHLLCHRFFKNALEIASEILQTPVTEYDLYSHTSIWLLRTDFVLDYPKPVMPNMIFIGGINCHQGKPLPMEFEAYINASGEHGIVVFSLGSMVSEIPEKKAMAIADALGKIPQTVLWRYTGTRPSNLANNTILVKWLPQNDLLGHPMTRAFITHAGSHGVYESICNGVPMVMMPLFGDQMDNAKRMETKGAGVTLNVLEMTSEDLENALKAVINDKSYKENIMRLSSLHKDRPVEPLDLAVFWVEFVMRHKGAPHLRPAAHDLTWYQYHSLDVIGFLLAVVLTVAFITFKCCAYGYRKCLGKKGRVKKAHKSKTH
Assay: Inhibition of R-oxazepam glucuronidation in rUGT1A9 microsomes (UGT-overexpressing HEK293)
Type: biochemical
Conditions: rUGT1A9; read-out: IC50, R-Oxazepam Glucuronide
readout_kind: IC50 (µM)

1) C=C(C)[C@@H]1CCC(C)=C[C@H]1c1c(O)cc(CCCCC)cc1O [CBD, cannabidiol]
1.4
